- experiment_notes: protein stability index of a GFP-peptide fusion (yeast GPS) (PSI 1-4); higher = more stable; sorted into four equal gates, so the index is relative within each strain
- assay_setup: doa10∆
Use 3 as the dividing line for protein stability index, with the line itself on the fulfilled side and lower values as not fulfilled.

WFLDHNYIENMNEMCKK [RPN8] = fulfilled
VPMKEENLEESFLSKHA [SSN2] = fulfilled
IRDLEKLYDKTENDIKA [RPT4] = not fulfilled
IIKENVKVARLAGKYIP [FAS1] = not fulfilled

Request: Item KFIALCEQQPSQEREFS [SIN4] with protein stability index of 3 or above?
Response: not fulfilled

Request: Item KYACLAIRKNGQIDFWY [SIN4] with protein stability index of 3 or above?
Response: not fulfilled

Request: Item LGLEYIIRLLPINLENN [SRB8] with protein stability index of 3 or above?
Response: not fulfilled
